FYI, the data here is from the supplement of paper PMC9170038.

# Test system: MS2 coat protein
# Test description: apparent KD of MS2 coat protein; designed switch direction (-1 OFF switch, 1 ON switch): 1; higher = weaker reporter binding
# Condition context: Eterna round: R95; input ligand: FMN 200 uM
Values of apparent KD of MS2 coat protein greater than or equal to 60 nM map to yes (1); values below map to no (0).

INSERT INTO results (input_sequence, target, group) VALUES
  ('UCUUGGUUUUUGCUCGUUUUUUGUGUUGAACAUGAGGAUCACCCAUGUAUUGUACGAUCCGAUUUAAUAAUGGUCCG [JMF 62] (puzzle: Sensor for hsa-mir-208a)', 'MS2 coat protein', 'yes (1)'),
  ('UCUUGGUUUUUGCUCGUUUUUUGUGUUGAACAUGAGGAUCACCCAUGUAUUGUACGAUCCAGUUAGAUGGUGGUUUG [JR_SHM208A_Sub044] (puzzle: Sensor for hsa-mir-208a)', 'MS2 coat protein', 'yes (1)'),
  ('CUAACAACAAGUUGCAGUGUUCGUCUUUAACAUGAGGAUCACCCAUGUAAUAGCCCGGUAGAAGCGCUCGGGCCACC [Anaesrain] (puzzle: Sensor for hsa-mir-208a)', 'MS2 coat protein', 'no (0)'),
  ('AAACUACGUGCACAGGAUAUACGUUCCUAUACAUGAGGAUCACCCAUGUACCAACUGAAAAGGAAGUAGAAGGGUGUCCGUAAAC [Erbibearza] (puzzle: Same State 2)', 'MS2 coat protein', 'no (0)');

----------
apparent KD of K4 kissing-loop reporter values for the sequences below.
# System: K4 kissing-loop RNA reporter;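 note: bound reporter read as fluorescence of individual clusters on recovered sequencing chips by microscopy, with normalized cluster intensities fitted with a binding model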
# Test description: apparent KD of K4 kissing-loop reporter; higher = weaker reporter binding
# Condition context: Eterna round: R107; input ligand: FMN 200 uM
Assay endpoint: apparent KD of K4 kissing-loop reporter (nM)

INSERT INTO measurements (input_sequence, units_text, recorded_result) VALUES
  ('GCAGUGAUGUUGCGGAUGUACAGUGGCGUGCGAGGACCGGUACGGCCGCCACUCGUACAGAGCCAGCUAAUACAUCGAUUGGUGA [whbob_SS_Tryp_A_m7]', 'nM', 387),
  ('AGUGAUGUUGUGUUAUGUUUGGGAAGUGAUCGAGGACCGGUACGGCCGCCACUCGAGUGAUGAGUGAGUGAUGUUUGUUUAGGGA [whbob_SS_Tryp_A_m9]', 'nM', 1060),
  ('AUCGUUGUCUGAGGAUAUCGUUUUACUGUAGUGAUGUUACAGAAAAUUCACAUUAUAAUUUCUAUUCGAGAAGGCAGACUACGUA [JR_ExcFMNB_Sub015]', 'nM', 134),
  ('ACUAUCGAAAGAUAGUUCCCAGAGCUAGUAGAGGAUAUCUGGAAACAGAGAAGGCUACAAGAGUGAUGUUCUUCUAGCUUUGGGA', 'nM', 403),
  ('AAGCAGUCUCUUGUAGUCAUCGAAGAUGAACGAGGACCGGUACGGCCGCCACUCGGAGUGAUGUUCCGAAGGCUGCAAAAUAAAA [MatMod 18 - Jieux - Exclusion - Tryptophan A]', 'nM', 300),
  ('UGUCAUUGGUCGGCCGCCACUAUAUAAAAGAGUGAUGUUCUAAAGACGGAUCGAAAGAUCUGUCAUAGGACCGGGACCGAUGACU [TrypBS 20 #SwitchBubble #StaticStem]', 'nM', 293),
  ('AUAAACUUGCAGUGAUGUUGCAAGUAAGACUAGGAUAUCAGGAAACUGAGAAGGAGUCAUCUCCUUCACUUGCAACUAGGAGGAG [[K1]-[K2]-[F1]-[F2]-[F]''-[K]''-[F]''''_Design6]', 'nM', 122),
  ('GCCGUACGCAUGGAUACCAGCAAUCAAACGUCAUGCGAAGUGAUGUUUCGCUUACGGUAGUGCCCUUGGCAGCCAUGCGUACGGC', 'nM', 142),
  ('AAUUUAUUAACUGAUACCAGACUUAAUUAAUUGUAAAUUACUAGUGAUGUUAGUGAUUCUGUCCCUUGGCAGCAGUAUUUAUUAA [JR_ExcTheophyB_Sub011]', 'nM', 98.3),
  ('ACGUGCCCAGUGAUGUUGGAUAAAUAUGAAGGAGCGUGCGAAAGCACAGGUAGGUCGCAUAAUAGCACGAGCCACGAAAGUGGCA [#SwitchBubble 7 #K4Early #Sliding]', 'nM', 179),
  ('AUUUAUGUUUCGGCCGCCACUCCACGUACUCAGAGAGAGUGAUGUUCUUUUUAUUAACGUCUAUGGAGGACCGGGAAGAGGUGAG [theeternabot_exclusion_KL_Trp_B_37]', 'nM', 672);

----------
# Tested on: MS2 coat protein
# Test description: apparent KD of MS2 coat protein; designed switch direction (-1 OFF switch, 1 ON switch): -1; higher = weaker reporter binding
# Condition context: Eterna round: R95; input ligand: none
Assay endpoint: apparent KD of MS2 coat protein (nM)

INSERT INTO assay_data (input_sequence, units_text, recorded_result) VALUES
  ('GGUUGGCGAGGAUAUACAUGAGGAUCACCCAUGUGAGAGAAAAAAGUGAGGAAGAACAGUAGAAGGCGCUGACG [salish99_ex3_r3_036] (puzzle: Exclusion 3)', 'nM', 106),
  ('AGUACUAACACGAUAGUGUUAGUACUAUAAGCUUGUGUUACAUGAGGAUCACCCAUGUCCUCAUAAGCUCGUCUUAU [Mat - Sensor v3 - Turn-off var 2 - D78] (puzzle: Sensor v3, turn-off variant 2)', 'nM', 101),
  ('UUUAAUUUUUUUUUUUUACAAGCUUUUUGCUCGUCUUAUACAUGAGGAUCACCCAUGUGGGUAAGGGAUAAAUUAUC [JMF 37] (puzzle: Sensor v3, turn-off variant 2)', 'nM', 35.3),
  ('CGUGGCUUUUACGUGAGUGGUGGGUGCAACAGGUGGGUUACAUGAGGAUCACCCAUGUGCUCACUUGCUCGUCUUUU [Grok-var2-10] (puzzle: Sensor v3, turn-off variant 2)', 'nM', 52.5),
  ('GGUUGGCGAGGAUAUACAUGAGGAUCACCCAUGUGAGAGAAUAAAGUGAGAAAGAAAAGUAGAAGGCGCUGACG [Mat - Exclusion 3 - Mod of Salish D49] (puzzle: Exclusion 3)', 'nM', 43.3);

----------
# Test system: MS2 coat protein
# Test description: apparent KD of MS2 coat protein; higher = weaker reporter binding
# Condition context: Eterna round: R107; input ligand: arginine 13.2 mM
Assay endpoint: apparent KD of MS2 coat protein (µM)

INSERT INTO results (input_sequence, units_text, recorded_result) VALUES
  ('UGGUACAUGGCGGCCGCCACUUCACGUAAAAUAAAAGCUUGAGGAUCACCCAAGUAAUAAGUUGGGAGGACCGGGUCAUGUACCU', 'µM', 0.0192),
  ('GGAUAGGACACGGCCGCCACUACCUAGGAUACUAGAAACAUUUCCUCACAUGAGGAUCACCCAUGUAGGACCGGGUGUCCUAUCG', 'µM', 0.106),
  ('CACGAAAGAUCGGCCGCCACUCAUGUUUCUUACAUGAGGAUCACCCAUGUAUUUUCUUUCUUUUAGAGGACCGGGAUCGAGCGUG [#01 Same State - Tryptophan B]', 'µM', 0.0468),
  ('GCCGGACUUUCGGCCGCCACUGAGAGAGUCGUGUGAACAUGAGGAUCACCCAUGUAAUAUAUAUACAGGACCGGGAGGGUCCGGC [4.T]', 'µM', 0.0123),
  ('GCACCAGGUACGGAUACCAGCUGCCAGCGUUACAUGAGGAUCACCCAUGUGAUCUGAAGUAGCCCUUGGCAGCUGUACCUGGUGC [SSThB NP+V+V2 #4 +-Same Structure]', 'µM', 0.0967),
  ('AUACAUGAGGAUCACCCAUGUCAUUCAGAAGGAGCGUCAUUUUAGACAGGUAGGUCGCUGAUAUUAUCUUUAUACUUUAUGUUUA [JR_ExcArginiA_Sub023]', 'µM', 0.0191);

----------
Consider the following sequences and their measured apparent KD of MS2 coat protein readings.
# System: MS2 coat protein
# Test description: apparent KD of MS2 coat protein; higher = weaker reporter binding
# Condition context: Eterna round: R107; input ligand: none
Assay endpoint: apparent KD of MS2 coat protein (nM)

INSERT INTO results (input_sequence, target, assay_endpoint, units_text, recorded_result) VALUES
  ('AGAGUUAGACAAAAGUCUAGCUCACCAGAAGGAGCGUCCGAAAGGACAGGUAGGUCGCUGGUGCUUGAGGAUCACCCAAGUUCCU [ArgAS 22 #OpenEnded #AlternativeMS2]', 'MS2 coat protein', 'apparent KD of MS2 coat protein', 'nM', 96.1),
  ('AUACAUGAGGCGGCCGCCACUUUACAUGAGGAUCAACAUGAGGAUCACCCAUGUUACAUGUGGAUAAGGACCGGGCCUCAUGUAU [Same State Tryptophan B 2]', 'MS2 coat protein', 'apparent KD of MS2 coat protein', 'nM', 180),
  ('CAUCCUAGUACAUGAGGAUCACCCAUGUAUCGAGGACCGGUACGGCCGCCACUCGAAUGGCGGAUCGUUGAUCCUUUAGGAUGAA [Tryp A Ex t4]', 'MS2 coat protein', 'apparent KD of MS2 coat protein', 'nM', 14.3),
  ('UGGGUUGGACCAGGAAAUGGUCUGACGCACCGAGGACCGGUACGGCCGCCACUCGGCCGUACAUGAGGAUCACCCAUGUCGGUGU [#1 Same State - Tryptophan A Attempt #13 (HarryS)]', 'MS2 coat protein', 'apparent KD of MS2 coat protein', 'nM', 376),
  ('UGUAUGUGAUCUGAUACCAGCUAAUAAGCUUGAGGAUCACCCAAGUGGAGCGGAAACGCAGGCCCUUGGCAGCAGAUCGCAUACU [Denovo 9 #StaticStem #AlternativeMS2]', 'MS2 coat protein', 'apparent KD of MS2 coat protein', 'nM', 76.4),
  ('GGACUAACCUGAAGGAGCGACGCGCAGAAACUGCAAUUUCCUCCACACGAGGAUCACCCGUGUCAGGUAGGUCGCAGGUUAGUCG [ArgBX 29]', 'MS2 coat protein', 'apparent KD of MS2 coat protein', 'nM', 14.1);
